# subjectOfTest: COX-1 (Homo sapiens, UniProt P23219)
# Sequence (P23219 24-599): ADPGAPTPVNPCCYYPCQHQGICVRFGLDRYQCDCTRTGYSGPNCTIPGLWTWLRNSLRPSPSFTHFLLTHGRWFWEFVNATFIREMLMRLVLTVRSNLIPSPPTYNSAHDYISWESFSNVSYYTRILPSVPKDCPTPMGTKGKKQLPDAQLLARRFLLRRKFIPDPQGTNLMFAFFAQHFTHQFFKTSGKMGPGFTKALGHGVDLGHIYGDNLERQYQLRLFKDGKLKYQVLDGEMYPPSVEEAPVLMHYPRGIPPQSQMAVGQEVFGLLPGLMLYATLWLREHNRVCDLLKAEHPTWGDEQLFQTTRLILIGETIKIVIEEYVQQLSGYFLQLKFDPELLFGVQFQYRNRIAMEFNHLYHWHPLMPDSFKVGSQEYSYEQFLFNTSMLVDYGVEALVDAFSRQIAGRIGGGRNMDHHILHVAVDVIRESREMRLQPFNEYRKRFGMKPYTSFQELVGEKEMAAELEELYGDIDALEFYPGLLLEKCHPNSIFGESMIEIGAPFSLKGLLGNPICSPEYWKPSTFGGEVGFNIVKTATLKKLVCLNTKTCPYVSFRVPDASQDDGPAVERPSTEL
pIC50: −log10 of the molar value.
resultType: pIC50

[[record]]
molecule = "COC(=O)Cc1c(C)n(C(=O)c2ccc(Cl)cc2)c2ccc(OC)cc12 [Compound 1i, Indomethacin methyl ester, reference compound]"
endpointvalue = "< 4.60"

